TARGET OR SYSTEM: EPHA6 (Homo sapiens, UniProt Q9UF33)
Construct: purchased Reaction Biology Europe GmbH
Sequence (Q9UF33 23-1036): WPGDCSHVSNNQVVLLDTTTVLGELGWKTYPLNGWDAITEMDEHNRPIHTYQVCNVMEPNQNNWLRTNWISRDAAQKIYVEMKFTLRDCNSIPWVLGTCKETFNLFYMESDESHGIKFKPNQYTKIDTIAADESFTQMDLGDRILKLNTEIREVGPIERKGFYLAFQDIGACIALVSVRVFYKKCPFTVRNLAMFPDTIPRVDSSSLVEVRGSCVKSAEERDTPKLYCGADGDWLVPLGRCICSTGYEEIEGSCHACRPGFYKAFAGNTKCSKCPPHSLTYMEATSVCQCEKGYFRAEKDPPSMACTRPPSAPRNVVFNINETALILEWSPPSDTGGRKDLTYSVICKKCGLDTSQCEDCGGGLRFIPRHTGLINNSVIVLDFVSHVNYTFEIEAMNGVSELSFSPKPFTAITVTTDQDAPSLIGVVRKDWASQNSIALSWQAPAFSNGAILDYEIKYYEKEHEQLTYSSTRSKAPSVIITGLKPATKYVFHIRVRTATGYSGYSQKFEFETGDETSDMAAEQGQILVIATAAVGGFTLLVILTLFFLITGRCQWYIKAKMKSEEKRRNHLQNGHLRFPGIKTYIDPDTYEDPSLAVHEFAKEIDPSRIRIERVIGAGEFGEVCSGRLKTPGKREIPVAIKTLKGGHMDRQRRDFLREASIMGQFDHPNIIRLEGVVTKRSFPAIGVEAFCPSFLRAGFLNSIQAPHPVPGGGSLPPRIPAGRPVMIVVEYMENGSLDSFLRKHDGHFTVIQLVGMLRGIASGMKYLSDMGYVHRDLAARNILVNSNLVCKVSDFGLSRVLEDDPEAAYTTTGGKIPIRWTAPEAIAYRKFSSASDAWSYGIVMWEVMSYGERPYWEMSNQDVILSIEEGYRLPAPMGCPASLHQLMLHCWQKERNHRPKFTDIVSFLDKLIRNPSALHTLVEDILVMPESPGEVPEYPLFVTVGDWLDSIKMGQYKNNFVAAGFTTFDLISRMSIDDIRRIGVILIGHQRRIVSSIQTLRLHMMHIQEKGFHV
EXPERIMENT: PanQinase kinase panel: EPHA6
Format: biochemical
CONDITIONS: read-out: INHIBITORY EFFECT @ 1 uM: EPHA6
Procedure: Screening procedures were performed in accordance with the company's on-line protocol [accessed on-line Mar. For each kinase, the median value of the cpm of three wells was defined as “low control” (n=3). This value reflects unspecific binding of radioactivity to the plate in the absence of a protein kinase but in the presence of the substrate. […]
The reader will find reported inhibition at 1 µM values listed item by item below.
OBSERVED PROPERTY: inhibition at 1 µM

In [3]: df
Out[3]:
                              line_notation                      target_or_system  observed_measurement
0  COc1ccc(F)cc1C(=O)NCc1ccc(-c2nn([C@@H](C)C(F)(F)F)c(N)c2C(N)=O)cc1  EPHA6 (Homo sapiens, UniProt Q9UF33)                 < 50%
1  C=CC(=O)N1CCC([C@@H]2CCNc3c(C(N)=O)c(-c4ccc(Oc5ccccc5)cc4)nn32)CC1  EPHA6 (Homo sapiens, UniProt Q9UF33)                 < 50%
2  Cc1cccnc1[C@H]1CCC[C@@H](c2ncccc2C)N1CCN1CCN(C(=O)c2ccc(-c3cc4c(-c5cccc(NC(=O)c6ccccc6)c5C)ncnc4[nH]3)cc2)CC1  EPHA6 (Homo sapiens, UniProt Q9UF33)                 < 50%
3  O=C(c1ccc(Oc2ccccc2)cc1Cl)c1c[nH]c2ncnc(N[C@@H]3CC[C@@H](CO)OC3)c12  EPHA6 (Homo sapiens, UniProt Q9UF33)             50 to 69%
